# Subject Of Test: Angiotensin-converting enzyme (Oryctolagus cuniculus)
Measured IC50 values are reported for all entries that follow.

>  <Molecule>
CCOC(=O)[C@@H](CCSC)NC(=O)[C@@H](CSC(C)=O)Cc1ccccc1C

>  <Cmp>
=

>  <IC50 (nM)>
250

$$$$
>  <Molecule>
O=C(N[C@H](CSCCc1ccccc1)C(=O)O)[C@H](CS)Cc1ccccc1

>  <Cmp>
>

>  <IC50 (nM)>
1000

$$$$
>  <Molecule>
Cc1ccc(CSC[C@@H](NC(=O)[C@H](CS)Cc2cccc3ccccc23)C(=O)O)cc1

>  <Cmp>
=

>  <IC50 (nM)>
90

$$$$
>  <Molecule>
CC(C)(C)SC[C@@H](NC(=O)[C@H](CS)Cc1ccccc1)C(=O)O

>  <Cmp>
=

>  <IC50 (nM)>
640

$$$$
>  <Molecule>
CCCC(CS)C(=O)N[C@H](CCSC)C(=O)O (stereo not given in full)

>  <Cmp>
>

>  <IC50 (nM)>
1000

$$$$

###

# Subject Of Test: Angiotensin-converting enzyme (Oryctolagus cuniculus, UniProt P12822)
# Sequence (P12822 whole entry): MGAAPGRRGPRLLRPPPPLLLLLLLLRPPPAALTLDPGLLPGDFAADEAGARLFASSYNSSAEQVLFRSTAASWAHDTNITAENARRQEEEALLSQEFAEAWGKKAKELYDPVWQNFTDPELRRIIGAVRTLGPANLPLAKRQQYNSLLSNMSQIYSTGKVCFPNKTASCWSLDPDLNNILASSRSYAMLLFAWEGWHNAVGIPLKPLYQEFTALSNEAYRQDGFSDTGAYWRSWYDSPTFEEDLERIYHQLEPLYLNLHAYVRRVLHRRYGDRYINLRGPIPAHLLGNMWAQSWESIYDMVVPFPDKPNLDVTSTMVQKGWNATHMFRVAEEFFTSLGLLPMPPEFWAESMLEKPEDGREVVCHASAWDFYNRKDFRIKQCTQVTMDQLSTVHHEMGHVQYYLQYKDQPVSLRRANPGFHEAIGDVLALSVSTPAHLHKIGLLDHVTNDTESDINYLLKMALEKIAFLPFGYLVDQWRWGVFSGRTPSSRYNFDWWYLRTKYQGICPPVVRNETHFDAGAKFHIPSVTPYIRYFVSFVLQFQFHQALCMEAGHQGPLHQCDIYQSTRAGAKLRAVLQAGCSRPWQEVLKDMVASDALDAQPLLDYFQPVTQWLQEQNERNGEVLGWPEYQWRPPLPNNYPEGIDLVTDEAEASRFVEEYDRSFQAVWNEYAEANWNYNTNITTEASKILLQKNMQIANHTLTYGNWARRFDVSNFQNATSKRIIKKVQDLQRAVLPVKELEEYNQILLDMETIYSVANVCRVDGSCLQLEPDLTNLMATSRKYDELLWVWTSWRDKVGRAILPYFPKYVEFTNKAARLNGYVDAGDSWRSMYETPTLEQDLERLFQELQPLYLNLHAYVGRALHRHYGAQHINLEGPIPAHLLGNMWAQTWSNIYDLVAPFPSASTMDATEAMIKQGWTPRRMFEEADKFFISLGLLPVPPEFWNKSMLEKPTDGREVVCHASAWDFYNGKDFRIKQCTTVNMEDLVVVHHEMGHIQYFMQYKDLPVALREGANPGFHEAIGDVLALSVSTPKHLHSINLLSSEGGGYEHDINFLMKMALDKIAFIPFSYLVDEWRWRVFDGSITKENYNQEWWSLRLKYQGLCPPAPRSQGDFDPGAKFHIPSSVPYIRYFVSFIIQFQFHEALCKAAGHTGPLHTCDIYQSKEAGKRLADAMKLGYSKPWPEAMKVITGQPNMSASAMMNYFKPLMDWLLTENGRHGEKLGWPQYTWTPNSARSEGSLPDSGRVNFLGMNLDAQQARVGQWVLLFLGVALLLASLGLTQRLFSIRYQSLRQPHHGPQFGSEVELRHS
Measured IC50 values are reported for all entries that follow.

>  <Smiles Input>
Cc1ccc(CSC[C@@H](NC(=O)[C@H](CS)Cc2ccc(-c3ccccc3)cc2)C(=O)O)cc1

>  <Measurement Units>
nM

>  <Cmp>
>

>  <IC50>
1000

$$$$
>  <Smiles Input>
CSCC[C@@H](NC(=O)[C@@H](CS)CCc1ccccc1)C(=O)O

>  <Measurement Units>
nM

>  <Cmp>
=

>  <IC50>
150

$$$$
>  <Smiles Input>
CSCC[C@@H](NC(=O)[C@H](CS)Cc1ccccc1)C(N)=O

>  <Measurement Units>
nM

>  <Cmp>
>

>  <IC50>
1000

$$$$
>  <Smiles Input>
Cc1ccc(CSC[C@@H](NC(=O)[C@H](CS)Cc2ccccc2)C(=O)O)cc1

>  <Measurement Units>
nM

>  <Cmp>
=

>  <IC50>
1200

$$$$
>  <Smiles Input>
C[C@H](CS)C(=O)N[C@H](CSCc1ccccc1)C(=O)O

>  <Measurement Units>
nM

>  <Cmp>
=

>  <IC50>
58

$$$$
